System: Psecidoperonospora cubensis
Test: Effect on Cucumber downy mildew (preventive spray test)
Format: in vivo
Settings: conc. of active ingredient 100 ppm, 7 days after inoculation
Recorded Preventive rate (%) values for a group of compounds are listed next.
measure-name: Preventive rate (%)

compound	measure-name	reading
C#CCON=C1COc2c1ccc(OCc1ccccc1/C(=N\OC)C(=O)NC)c2C	Preventive rate (%)	100%
CON=C1CCOc2cc(OCc3ccccc3N(OC)C(=O)OC)ccc21	Preventive rate (%)	100%
COC=C(C(=O)OC)c1ccccc1COc1ccc2c(c1C)OCC2=NOC	Preventive rate (%)	100%
CON=C(C(=O)OC)c1ccccc1COc1cc2c(cc1C)C(=NOC)CCO2	Preventive rate (%)	100%
CON=C1c2ccc(OCc3ccccc3/C(=N\OC)C(=O)OC)c(C)c2OC1C (centres unmarked)	Preventive rate (%)	100%
CNC(=O)/C(=N/OC)c1ccccc1COc1ccc2c(c1C)OCC2=NOC	Preventive rate (%)	100%
COC=C(C(=O)OC)c1ccccc1COc1ccc2c(c1C)OCCC2=NOC	Preventive rate (%)	100%
CON=C(C(=O)OC)c1ccccc1COc1ccc2c(c1C)CCC2=NOCC=CCl	Preventive rate (%)	100%
CNC(=O)/C(=N/OC)c1ccccc1COc1ccc2c(c1)OCC2=NOC	Preventive rate (%)	94%
CNC(=O)C(=NOC)c1ccccc1COc1ccc2c(c1C)OC(C)CC2=NOC (racemic)	Preventive rate (%)	100%
CON=C1COc2cc(OCc3ccccc3N(OC)C(=O)OC)ccc21	Preventive rate (%)	97%

====

Recorded Preventive rate (%) values for a group of compounds are listed next.
Tested on: Psecidoperonospora cubensis
Assay: Effect on Cucumber downy mildew (preventive spray test)
Type: in vivo
Details: conc. of active ingredient 100 ppm, 7 days after inoculation

compound	Preventive rate (%)
C#CCON=C1CCc2c1ccc(OCc1ccccc1C(=NOC)C(=O)NC)c2C [e-61]	100
CON=C1CCc2cc(OCc3ccccc3C(=NOC)C(=O)OC)c(C)cc21 [e-26]	100
CNC(=O)C(=NOC)c1ccccc1COc1ccc2c(c1)OCCC2=NOC [c-5]	100
CNC(=O)/C(=N/OC)c1ccccc1COc1ccc2c(c1)OCC2=NOC(C)C [a-40]	100
CNC(=O)C(=NOC)c1ccccc1COc1ccc2c(c1C)CC(C)C2=NOC (racemic) [f-4]	100
CNC(=O)C(=NOC)c1ccccc1COc1cc(C)c2c(c1C)CCC2=NOC [e-23]	100
CCc1cc2c(cc1OCc1ccccc1/C(=N\OC)C(=O)OC)OCC2=NOC (single isomer, unassigned) [a-29]	97
CNC(=O)/C(=N/OC)c1ccccc1COc1ccc2c(c1C)OCC2=NOCc1ccccc1 [a-73]	88
CNC(=O)/C(=N/OC)c1ccccc1COc1ccc2c(c1)OCC2=NOC/C=C/Cl [a-63]	100
COC=C(C(=O)OC)c1ccccc1COc1ccc2c(c1)OCC2=NOC [a-2]	100
C=C(Cl)CON=C1COc2c1ccc(OCc1ccccc1/C(=N\OC)C(=O)NC)c2C [a-64]	100
CNC(=O)/C(=N/OC)c1ccccc1COc1ccc2c(c1C)OC(C)C2=NOC (stereo not shown) [b-7]	96
CON=C1COc2cc(OCc3ccccc3/C(=N\OC)C(=O)OC)c(C)cc21 [a-26]	100
C/C=C/CON=C1COc2c1ccc(OCc1ccccc1/C(=N\OC)C(=O)NC)c2C [a-65]	100
CCON=C1COc2c1ccc(OCc1ccccc1/C(=N\OC)C(=O)NC)c2C [a-36]	100
CCCON=C1COc2c1ccc(OCc1ccccc1/C(=N\OC)C(=O)NC)c2C [a-42]	100
CNC(=O)C(=NOC)c1ccccc1COc1ccc2c(c1)CCC2=NOC [e-5]	100
CO/N=C(\C(=O)OC)c1ccccc1COc1ccc2c(c1)CCCC2 [comparative compound (2), reference compound]	93
CNC(=O)C(=NOC)c1ccccc1COc1ccc2c(c1)CCC2=NOCC=CCl [e-58]	100
CON=C(C(=O)OC)c1ccccc1COc1cc2c(cc1C)C(=NOC)C(C)C2 (single isomer, unassigned) [f-10]	100
CON=C(C(=O)OC)c1ccccc1COc1ccc2c(c1C)OCCC2=NOC [c-15]	100
CCc1cc2c(cc1OCc1ccccc1/C(=N\OC)C(=O)NC)OCC2=NOC [a-32]	97
